B1: library; numbered along this chain (parent)
chain: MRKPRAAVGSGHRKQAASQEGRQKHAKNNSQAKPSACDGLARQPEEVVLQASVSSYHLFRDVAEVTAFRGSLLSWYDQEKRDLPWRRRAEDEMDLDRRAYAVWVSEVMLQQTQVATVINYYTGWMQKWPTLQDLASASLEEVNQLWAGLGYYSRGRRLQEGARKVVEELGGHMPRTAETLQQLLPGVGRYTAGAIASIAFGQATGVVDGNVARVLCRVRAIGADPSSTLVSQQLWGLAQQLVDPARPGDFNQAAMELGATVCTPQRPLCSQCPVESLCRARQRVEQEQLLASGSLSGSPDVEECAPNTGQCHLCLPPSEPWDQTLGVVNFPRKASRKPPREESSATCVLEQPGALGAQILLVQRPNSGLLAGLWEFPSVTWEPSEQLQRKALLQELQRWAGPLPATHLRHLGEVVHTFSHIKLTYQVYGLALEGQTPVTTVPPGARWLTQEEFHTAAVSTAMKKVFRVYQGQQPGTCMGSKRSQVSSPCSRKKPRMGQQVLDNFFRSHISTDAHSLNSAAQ

variants of: B1; test: 8OG:A repair function score (normalized; synonymous = 0, nonsense = -1) (normalized log-likelihood score); higher = more repair activity (WT-like); settings: with 8OG:A DNA repair reporter (GFP) in HEK-293 MUTYH KO cells;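 also: cells sorted at 72 h after reporter transfection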
# 8OG:A repair function score per entry
I'd appreciate a reply containing only the number, no unit.

Completed entries (count: 5):
> print(dat)
   variant   number
1     H57P   -0.793
2    E451T    -0.12
3    E341N  -0.0613
4    S419N   -0.269
5    Y152D    -1.08

E90Q has a reported 8OG:A repair function score of -0.0474

L234E has a reported 8OG:A repair function score of -0.954

C489F has a reported 8OG:A repair function score of -0.0128

S276I has a reported 8OG:A repair function score of -0.0404

P404F has a reported 8OG:A repair function score of -0.272

I509L has a reported 8OG:A repair function score of 0.00266

L360N has a reported 8OG:A repair function score of -1.27

E92P has a reported 8OG:A repair function score of -0.0511

These entries and their values trace back to the supplement of paper PMC11908140.
